Sourced from patent US20230391786A1

log10(IC50) listing for selected compounds.
# study_system: recombinant human cGAS (Homo sapiens (Human))
# Sequence (Q8N884 whole entry): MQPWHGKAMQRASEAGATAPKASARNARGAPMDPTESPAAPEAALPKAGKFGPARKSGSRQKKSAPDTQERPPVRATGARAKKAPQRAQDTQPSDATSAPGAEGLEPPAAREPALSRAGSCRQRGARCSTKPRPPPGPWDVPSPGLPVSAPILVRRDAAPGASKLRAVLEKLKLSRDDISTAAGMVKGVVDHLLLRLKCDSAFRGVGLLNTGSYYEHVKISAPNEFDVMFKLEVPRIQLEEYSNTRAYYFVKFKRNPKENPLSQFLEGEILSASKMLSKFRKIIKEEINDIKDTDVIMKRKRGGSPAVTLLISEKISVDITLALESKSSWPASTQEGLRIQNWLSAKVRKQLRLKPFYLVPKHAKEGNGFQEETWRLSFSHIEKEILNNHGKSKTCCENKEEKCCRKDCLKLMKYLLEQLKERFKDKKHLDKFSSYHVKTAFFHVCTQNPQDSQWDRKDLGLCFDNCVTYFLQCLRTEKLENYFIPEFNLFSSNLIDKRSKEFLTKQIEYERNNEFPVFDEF
# protocol: In vitro inhibition assay of cGAS activity (cGAMP production, RapidFire mass spectrometry)
# Type: biochemical
# assay_setup: 10 nM recombinant human cGAS, 60 nM 75-bp dsDNA, ATP, GTP, room temperature 3 hours, read-out: IC50 (μM), In vitro inhibition assay for Compounds 95-348
Would you kindly interpret these values as log10 of IC50 expressed in µM?

CC(=O)NCC(=O)NC1CCc2c(-c3cn[nH]c3)c3ccc(Cl)c(Cl)c3n2C1 (centres unmarked) [Example 107] : -1.71
N#CCOc1cc(Cl)c(Cl)c2c1c(-c1cn[nH]c1)c1n2CCN(c2ncccn2)C1 [Example 204] : -1.70
Cc1nc(C)n(CC(=O)N2CCn3c(c(-c4cn[nH]c4)c4c(OCC#N)cc(Cl)c(Cl)c43)C2)n1 [Example 293] : -1.35
COCC(=O)NC(C)C(=O)N1CCn2c(c(-c3cn[nH]c3)c3ccc(Cl)c(Cl)c32)C1 (centres unmarked) [Example 333] : -1.04
Cc1nnc(-c2[nH]c3c(Cl)c(Cl)ccc3c2-c2cn[nH]c2)o1 [Example 127] : -1.54

May I ask what log10(IC50) has been recorded for CN1CC(C(=O)N2CCn3c(c(-c4cn[nH]c4)c4ccc(Cl)c(Cl)c43)C2)CC1=O (centres unmarked) [Example 319] ?
-1.27

May I ask what log10(IC50) has been recorded for O=C(Nc1cc(Cl)c(Cl)c2[nH]cc(-c3cn[nH]c3)c12)C(F)F [Example 171] ?
-2.45

May I ask what log10(IC50) has been recorded for F[C@H]1C[C@@H](Oc2cc(Cl)c(Cl)c3[nH]cc(-c4cn[nH]c4)c23)C1 [Example 126] ?
-1.45

###

IC50 listing for selected molecules.
# Tested on: cGAS activity in THP1 cells (IFNb as marker)
# protocol: Cellular assay to measure cGAS activity (IFNb production in PMA-differentiated THP1 cells stimulated by RDG-Adenovirus-GFP)
# Assay type: cell-based, human
# assay_setup: Homo sapiens, THP-1, THP1 cells, PMA differentiated, RDG-Adenovirus-GFP 1000 MOI, IFNb AlphaLISA, overnight incubation; read-out: IC50 (μM), Cellular assay for Compounds 95-348
Numbers only here, please. The scale is µM.

COc1cc(Cl)cc2c1c(-c1cn[nH]c1)cn2-c1cn(CCO)nn1 : 1.01

May I ask what IC50 has been recorded for O[C@H]1CC[C@H](Nc2cc(Cl)c(Cl)c3[nH]cc(-c4cn[nH]c4)c23)C1 (racemic) ?
0.351

May I ask what IC50 has been recorded for Clc1ccc2c(-c3cn[nH]c3)c3n(c2c1Cl)CC(Nc1ncccn1)CC3 (centres unmarked) ?
8.53

May I ask what IC50 has been recorded for O=C(Nc1cc(Cl)c(Cl)c2[nH]cc(-c3cn[nH]c3)c12)C(O)CO (centres unmarked) ?
3.44

May I ask what IC50 has been recorded for `CC(=O)NCCn1cc(-c2cn[nH]c2)c2c(NCCCO)cc(Cl)c(Cl)c21` ?
1.23

May I ask what IC50 has been recorded for `CCOc1cc(Cl)c(Cl)c2c1c(-c1cn[nH]c1)c1n2CC[C@@H]1NC(C)=O` ?
1.13
